Value source: patent US10544130B2

Items are presented alongside their recorded Serratia marcescens (IMP-1) MITC95.
- Test system: Serratia marcescens expressing IMP-1 (CL5741)
- Assay type: cell-based
- condition-summary: with imipenem 1 μg/ml; 95% inhibition of bacterial growth
Answers without a unit are incomplete; give the number and then its unit.

- compound: "C[C@H](CN)NS(=O)(=O)c1ccc(-c2ccnc(N)c2)c(-c2nn[nH]n2)c1S(N)(=O)=O"
  result: "1.563 µM"
- compound: "Nc1ccc2cccc(-c3ccc(S(=O)(=O)N[C@@H]4CCNC4)c(S(N)(=O)=O)c3-c3nn[nH]n3)c2n1"
  result: "0.7813 µM"
- compound: "Nc1ccc2cccc(-c3ccc(S(=O)(=O)N[C@H]4CNC[C@H]4N)c(S(N)(=O)=O)c3-c3nn[nH]n3)c2n1"
  result: "0.7813 µM"
- compound: "NS(=O)(=O)c1c(S(=O)(=O)N[C@@H]2CCNC2)ccc(-c2cccc3ncccc23)c1-c1nn[nH]n1"
  result: "1.563 µM"
- compound: "NCCn1nc2cccc(-c3ccc(S(=O)(=O)N[C@@H]4CCNC4)c(S(N)(=O)=O)c3-c3nn[nH]n3)c2n1"
  result: "0.7813 µM"

Need Serratia marcescens (IMP-1) MITC95, item NCCNS(=O)(=O)c1ccc(-c2cccc(C(=O)N[C@@H]3CNC[C@H]3O)c2)c(-c2nn[nH]n2)c1S(N)(=O)=O 1.563 µM

# repeat for Cn1nc2cccc(-c3ccc(S(=O)(=O)N[C@@H]4CCNC4)c(S(N)(=O)=O)c3-c3nn[nH]n3)c2n1 1.563 µM

Query CNc1nc2c(-c3ccc(S(=O)(=O)N[C@@H]4CCNC4)c(S(N)(=O)=O)c3-c3nn[nH]n3)cccc2[nH]1 next 0.7813 µM

Quick one: NCCNS(=O)(=O)c1ccc(-c2cccc(SCC(N)CO)c2)c(-c2nn[nH]n2)c1S(N)(=O)=O (centres unmarked) 1.563 µM

Then NC[C@H](CO)NS(=O)(=O)c1ccc(-c2ccnc(N)c2)c(-c2nn[nH]n2)c1S(N)(=O)=O ? 1.563 µM

What do we get for NCc1nc2c(-c3ccc(S(=O)(=O)NC[C@@H](O)CN)c(S(N)(=O)=O)c3-c3nn[nH]n3)cccc2s1 ? 0.7813 µM

What do you have for NC[C@H](CO)NS(=O)(=O)c1ccc(-c2cccc(N)n2)c(-c2nn[nH]n2)c1S(N)(=O)=O ? 3.125 µM

What would you report for Nc1nc2c(-c3ccc(S(=O)(=O)NC[C@@]4(N)CCNC4)c(S(N)(=O)=O)c3-c3nn[nH]n3)cccc2[nH]1 ? 0.7813 µM

Then this compound: NCCNS(=O)(=O)c1ccc(-c2cccc(NC[C@H](N)CO)c2)c(-c2nn[nH]n2)c1S(N)(=O)=O 0.7813 µM

###

- Test system: Pseudomonas aeruginosa PAO1 MB9798 (efflux+, IMP-1)
- condition-summary: ratio MITC95 PA 9798/MITC95 PA 9799; imipenem at 2 μg/mL
measured-metric: Efflux ratio

# annotated cases, reported Efflux ratio shown
- molecule: "CN1CC[C@H](CNS(=O)(=O)c2ccc(-c3cccc4sc(N)nc34)c(-c3nnn[nH]3)c2S(N)(=O)=O)C1 [Example 77]"
  measured-target: "Pseudomonas aeruginosa PAO1 MB9798 (efflux+, IMP-1)"
  result: 0.50
- molecule: "CNc1ccc(-c2ccc(S(=O)(=O)N[C@@H]3CCNC3)c(S(N)(=O)=O)c2-c2nn[nH]n2)cn1 [Example 242]"
  measured-target: "Pseudomonas aeruginosa PAO1 MB9798 (efflux+, IMP-1)"
  result: 1.00
- molecule: "Nc1nc2c(-c3ccc(S(=O)(=O)N[C@@H]4CCCNC4)c(S(N)(=O)=O)c3-c3nnn[nH]3)cccc2[nH]1 [Example 178]"
  measured-target: "Pseudomonas aeruginosa PAO1 MB9798 (efflux+, IMP-1)"
  result: 1.00
- molecule: "Cn1c(N)nc2c(-c3ccc(S(N)(=O)=O)c(S(N)(=O)=O)c3-c3nn[nH]n3)cccc21 [Example 5]"
  measured-target: "Pseudomonas aeruginosa PAO1 MB9798 (efflux+, IMP-1)"
  result: 2.00
- molecule: "N[C@H](CO)CNS(=O)(=O)c1ccc(-c2cccc3[nH]cnc23)c(-c2nn[nH]n2)c1S(N)(=O)=O [Example 296]"
  measured-target: "Pseudomonas aeruginosa PAO1 MB9798 (efflux+, IMP-1)"
  result: 1.00
- molecule: "Nc1nc2c(-c3ccc(S(=O)(=O)N4CCC(N)CC4)c(S(N)(=O)=O)c3-c3nn[nH]n3)cccc2s1 [Example 148]"
  measured-target: "Pseudomonas aeruginosa PAO1 MB9798 (efflux+, IMP-1)"
  result: 2.00

Which measured Efflux ratio value corresponds to Nc1nc2c(-c3ccc(S(=O)(=O)NC[C@@H]4CNCCN4)c(S(N)(=O)=O)c3-c3nn[nH]n3)cccc2[nH]1 [Example 310] ? 1.00

###

- Tested on: Pseudomonas aeruginosa PAO1 MB9798 (efflux+, IMP-1)
- condition-summary: ratio MITC95 PA 9798/MITC95 PA 9799; imipenem at 2 μg/mL
- Method: The strain background was Pseudomonas aeruginosa PAO1. The strain set was then used as a pair to determine the effect of metallo-β-lactamase inhibitors of Formula I on the MIC of imipenem and/or ceftazidime. […] A serial titration of the metallo-β-lactamase inhibitor was included and the concentration of metallo-β-lactamase inhibitor which restores susceptibility of the strain to the included antibiotic was recorded. […]
measured-metric: Efflux ratio
The reply should be a number, written without any unit.

Consider the reported Efflux ratio for these molecules:
- molecule: "C[C@H](CN)NS(=O)(=O)c1ccc(-c2cccn3ccnc23)c(-c2nn[nH]n2)c1S(N)(=O)=O"
  measured-target: "Pseudomonas aeruginosa PAO1 MB9798 (efflux+, IMP-1)"
  quantitative-readout: 0.50
- molecule: "NS(=O)(=O)c1c(S(=O)(=O)N[C@H]2C[C@H](N)C2)ccc(-c2cccc3[nH]cnc23)c1-c1nn[nH]n1"
  measured-target: "Pseudomonas aeruginosa PAO1 MB9798 (efflux+, IMP-1)"
  quantitative-readout: 1.00
- molecule: "CC[C@@H](CN)NS(=O)(=O)c1ccc(-c2cccc3[nH]c(N)nc23)c(-c2nn[nH]n2)c1S(N)(=O)=O"
  measured-target: "Pseudomonas aeruginosa PAO1 MB9798 (efflux+, IMP-1)"
  quantitative-readout: 4.00
- molecule: "NS(=O)(=O)c1c(S(=O)(=O)N[C@H]2CCNC2)ccc(-c2cccc3[nH]cnc23)c1-c1nn[nH]n1"
  measured-target: "Pseudomonas aeruginosa PAO1 MB9798 (efflux+, IMP-1)"
  quantitative-readout: 1.00
- molecule: "Nc1ccc2cccc(-c3ccc(S(N)(=O)=O)c(S(N)(=O)=O)c3-c3nn[nH]n3)c2n1"
  measured-target: "Pseudomonas aeruginosa PAO1 MB9798 (efflux+, IMP-1)"
  quantitative-readout: 1.00

Report Efflux ratio for CN1CCC(N(C)S(=O)(=O)c2ccc(-c3cccc4sc(N)nc34)c(-c3nnn[nH]3)c2S(N)(=O)=O)C1 (stereo not drawn) tested on Pseudomonas aeruginosa PAO1 MB9798 (efflux+, IMP-1). 2.00

And what about the molecule NC(=O)[C@H](N)CNS(=O)(=O)c1ccc(-c2cccc3[nH]c(N)nc23)c(-c2nn[nH]n2)c1S(N)(=O)=O ? 0.50

Lookup NS(=O)(=O)c1c(S(=O)(=O)N[C@@H]2CCNC2)ccc(-c2cccc3[nH]cnc23)c1-c1nn[nH]n1 1.00

Subsequent entry: Nc1nc2c(-c3ccc(S(=O)(=O)N[C@H]4CN[C@H](CO)C4)c(S(N)(=O)=O)c3-c3nnn[nH]3)cccc2[nH]1 0.50

Record: CN1CCC(NS(=O)(=O)c2ccc(-c3cccc4sc(N)nc34)c(-c3nnn[nH]3)c2S(N)(=O)=O)C1 (stereo not drawn) 1.00

Same again, this time with Nc1nc2c(-c3ccc(S(=O)(=O)N4CCC(N)(CO)C4)c(S(N)(=O)=O)c3-c3nnn[nH]3)cccc2s1 (stereo not drawn) 1.00

How about this molecule: Nc1nc2c(-c3ccc(S(=O)(=O)N[C@@H](N)c4ccccn4)c(S(N)(=O)=O)c3-c3nnn[nH]3)cccc2s1.O=C(O)C(F)(F)F 8.00

# repeat for CN(C)CC(F)(F)CNS(=O)(=O)c1ccc(-c2cccc3sc(N)nc23)c(-c2nnn[nH]2)c1S(N)(=O)=O 16.00

Do the same for Nc1ccc(-c2ccc(S(=O)(=O)NC[C@@]3(N)CCNC3)c(S(N)(=O)=O)c2-c2nn[nH]n2)cn1 please 1.00

How about Nc1nc2c(-c3ccc(S(=O)(=O)N[C@H]4CN[C@@H](CO)C4)c(S(N)(=O)=O)c3-c3nnn[nH]3)cccc2[nH]1 ? 1.00

And for NCC(CN)NS(=O)(=O)c1ccc(-c2cccnc2N)c(-c2nn[nH]n2)c1S(N)(=O)=O ? 2.00

Field entry: Nc1nc2c(-c3ccc(S(=O)(=O)NC4CCS(=O)(=O)CC4)c(S(N)(=O)=O)c3-c3nnn[nH]3)cccc2s1 1.00
